Where do these numbers come from? They come from ChEMBL document CHEMBL4765357.

target: Medium/long-chain-fatty-acid--CoA/3-oxocholest-4-en-26-oate--CoA ligase (Mycobacterium tuberculosis); assay: Inhibition of Mycobacterium tuberculosis H37Rv FACL19 Spectra expressed in Escherichia coli BL21(DE3) cells assessed as cleavage of MEsG by spectroscopic analysis; conditions: read-out: Ki(app)
Sequence (P9WQ51 whole entry): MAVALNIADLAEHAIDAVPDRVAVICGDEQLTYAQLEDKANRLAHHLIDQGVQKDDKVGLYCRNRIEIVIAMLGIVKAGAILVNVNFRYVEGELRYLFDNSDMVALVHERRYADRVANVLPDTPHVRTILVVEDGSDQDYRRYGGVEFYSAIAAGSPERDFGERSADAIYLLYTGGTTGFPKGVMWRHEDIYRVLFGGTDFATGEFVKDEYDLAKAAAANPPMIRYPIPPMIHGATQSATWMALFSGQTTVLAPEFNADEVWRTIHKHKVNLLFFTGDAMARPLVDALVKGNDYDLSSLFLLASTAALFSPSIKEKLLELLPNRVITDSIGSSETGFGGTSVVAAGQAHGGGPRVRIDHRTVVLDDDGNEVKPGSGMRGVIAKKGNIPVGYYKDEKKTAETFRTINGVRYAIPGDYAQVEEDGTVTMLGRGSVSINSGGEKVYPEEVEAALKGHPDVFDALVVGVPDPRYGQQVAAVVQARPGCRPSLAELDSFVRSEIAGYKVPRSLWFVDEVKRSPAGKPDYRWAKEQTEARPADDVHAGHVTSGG
pKi: −log10 of the molar value.
parameter-measured: pKi

Answered examples (3):
{"compound-structure-string": "Nc1ncnc2c1ncn2[C@@H]1O[C@H](COS(=O)(=O)NC(=O)CCCCCCCCCCO)[C@@H](O)[C@H]1O", "pKi": "< 4.00"}
{"compound-structure-string": "Nc1ncnc2c1ncn2[C@@H]1O[C@H](COS(=O)(=O)NC(=O)CCCCCCCCCCOc2ccc(C(F)(F)F)cc2)[C@@H](O)[C@H]1O", "pKi": 4.46}
{"compound-structure-string": "CCCCCC(=O)NS(=O)(=O)OC[C@H]1O[C@@H](n2cnc3c(N)ncnc32)[C@H](O)[C@@H]1O", "pKi": "< 4.00"}

Next compound, please.
INPUT: May I ask what pKi has been recorded for CCCCCCCC(=O)NS(=O)(=O)OC[C@H]1O[C@@H](n2cnc3c(N)ncnc32)[C@H](O)[C@@H]1O ?
OUTPUT: < 4.00

###

Biological target: Long-chain-fatty-acid--AMP ligase FadD28 (Mycobacterium tuberculosis)
Sequence (P9WQ59 whole entry): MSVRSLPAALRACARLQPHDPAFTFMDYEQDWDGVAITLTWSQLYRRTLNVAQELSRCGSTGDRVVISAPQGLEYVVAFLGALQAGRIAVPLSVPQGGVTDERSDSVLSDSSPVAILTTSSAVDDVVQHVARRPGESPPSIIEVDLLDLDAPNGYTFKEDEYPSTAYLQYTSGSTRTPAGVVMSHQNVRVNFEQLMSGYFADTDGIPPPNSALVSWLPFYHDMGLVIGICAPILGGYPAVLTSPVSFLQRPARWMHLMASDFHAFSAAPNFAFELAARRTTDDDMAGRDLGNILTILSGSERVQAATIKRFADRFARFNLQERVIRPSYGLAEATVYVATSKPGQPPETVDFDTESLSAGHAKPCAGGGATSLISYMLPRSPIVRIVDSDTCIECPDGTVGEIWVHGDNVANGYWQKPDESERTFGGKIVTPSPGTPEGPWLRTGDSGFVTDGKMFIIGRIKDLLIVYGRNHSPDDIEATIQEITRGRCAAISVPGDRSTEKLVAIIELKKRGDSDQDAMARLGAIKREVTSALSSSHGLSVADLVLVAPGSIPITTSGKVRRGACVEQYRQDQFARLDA
Assay: Inhibition of Mycobacterium tuberculosis H37Rv His-tagged FAAL28 expressed in Escherichia coli
Conditions: read-out: Ki(app)
parameter-measured: Ki (nM)
Reply with just the number (in nM).

INPUT: State the recorded Ki for this entry: CCCCCCCCCCCC(=O)NS(=O)(=O)OC[C@H]1O[C@@H](n2cnc3c(N)ncnc32)[C@H](O)[C@@H]1O
OUTPUT: 1500

###

tested on: Vero; assay: Cytotoxicity against African green monkey Vero cells assessed as reduction in cell viability after 72 hrs by MTT assay; type: cell-based; details: Chlorocebus sabaeus
Lab note: compare IC50 with 6 µM, writing Condition met if less and Condition not met if equal or more.

Example cases with answers are listed next.
{"compound-structure-string": "C#CCCCCCCCCC(=O)NS(=O)(=O)OC[C@H]1O[C@@H](n2cnc3c(N)ncnc32)[C@H](O)[C@@H]1O", "qualitative-label": "Condition not met"}
{"compound-structure-string": "CCCCCCCCCC(=O)NS(=O)(=O)OC[C@H]1O[C@@H](n2cnc3c(N)ncnc32)[C@H](O)[C@@H]1O", "qualitative-label": "Condition not met"}
{"compound-structure-string": "CCCCCCCCCCCCCCCCCC(=O)NS(=O)(=O)OC[C@H]1O[C@@H](n2cnc3c(N)ncnc32)[C@H](O)[C@@H]1O", "qualitative-label": "Condition met"}

Now for a further compound.
INPUT: # strict comparison: is reported IC50 < 6 µM? input = CCCCCCCCCCCCCCCCCCCC(=O)NS(=O)(=O)OC[C@H]1O[C@@H](n2cnc3c(N)ncnc32)[C@H](O)[C@@H]1O
OUTPUT: Condition met
